test system: Staphylococcus aureus MW2 (mecA+); assay: IC50 (growth, competition assay); details: fluorescent label: DsRed; cefoxitin: subinhibitory
readout-kind: IC50 (µM)
Numbers only, in µM.

Use the examples below as a reference point.
c1ccc(-c2ccc(C(c3ccccc3)n3ccnc3)cc2)cc1 (stereo not drawn)
15.5
O=C(O[C@@H]1Cc2c(O)cc(O)cc2O[C@@H]1c1ccc(O)c(O)c1)c1cc(O)c(O)c(O)c1 [EPICATECHIN MONOGALLATE]
83.7
O=C1[C@H](CC[C@H](O)c2ccc(F)cc2)[C@@H](c2ccc(O)cc2)N1c1ccc(F)cc1 [ZETIA]
103
CN(C)C[C@H](O)Cn1c2ccc(Br)cc2c2cc(Br)ccc21 (racemic)
17.6

The observed IC50 for CC/C(=C(\c1ccccc1)c1ccc(OCCN(C)C)cc1)c1ccccc1 [Tamoxifen] when tested with Staphylococcus aureus MW2 (mecA+) stands at 14.8
